# Test: refractive index (Na D-line) (dimensionless)
# Condition Details: 308.15 K; 101.33 kPa; Liquid
Property Measured: refractive index
Numbers only.

CCOC(=O)C(=O)OCC [diethyl ethanedioate]
1.4039
ClC(Cl)=C(Cl)Cl
1.498

## Task Return reported refractive index; argument: `C1COCCO1`
## Result 1.4141
